- System: A498
- TEST DESCRIPTION: NCI tumour cell line growth inhibition, 48 h
Active and inactive are the calls of the source. No stated cut-off is given here; in the data, active = GI50 up to about 1.1 µM and inactive = higher.
// reported GI50 for each item listed
ATTRIBUTE MEASURED: GI50

| COMPOUND | RESULT |
| --- | --- |
| Cc1cc(C)n(CN(Cn2nc(C)cc2C)c2ccc(N(Cn3nc(C)cc3C)Cn3nc(C)cc3C)cc2)n1 | 22.2 µM (inactive) |
| Cc1ncc(CO)c(CN)c1O | > 100 µM (inactive) |
| COc1ccc(-c2cc(-c3ccccc3)n(C3OCC(OC(C)=O)C(OC(C)=O)C3OC(C)=O)c(=S)c2C#N)cc1 (centres undefined) | 72.9 µM (inactive) |
| Cc1ccc(S(=O)(=O)ON=C2CC(c3ccccc3)N(C)C(c3ccccc3)C2)cc1 (centres undefined) | 24.3 µM (inactive) |
| C[C@]12CC[C@H](O)C[C@@H]1CC[C@@H]1[C@@H]2CC[C@]2(C)[C@@H](C3=CC(=O)OC3)CC[C@]12O | 4.5 µM (inactive) |
| O=C1Nc2nnc(S)n2NC12c1ccccc1-c1ccccc12 | > 100 µM (inactive) |
| C=CC(=O)N1C/C(=C\c2ccccc2)C(=O)/C(=C/c2ccccc2)C1 | 2 µM (inactive) |
| O=c1c(Nc2ccccc2)cn(CCOc2ccccc2)c(=O)n1CCOc1ccccc1 | > 100 µM (inactive) |
| CC(C)(C)OC(=O)N1N=NC2C3OC(CC3=O)C21 (centres undefined) | > 100 µM (inactive) |

====

- Test system: SNB-75
- TEST DESCRIPTION: NCI tumour cell line growth inhibition, 48 h
Activity calls are given as the source filed them. No stated cut-off is given here; in the data, active = GI50 up to about 1.1 µM and inactive = higher. Starred links: 1 amine or outer side, 2 acyl side, 3 side chain; linkers in the order of their positions; H or OH if unused. Positions of bridges follow the written chain, without caps; N, C: chain ends. Non-standard residues stand in square brackets, D forms with d. Square brackets hold non-standard residues; d marks the D form. Residues, ends and D or L forms follow the SMILES beside them. Chains are numbered I, II in the order given. Peptide text beside a SMILES is read from it. * marks the point of attachment. Actinocin(1to9) = Cc1c2oc3c(C)ccc(C(=O)[*:2])c3nc-2c(C(=O)[*:1])c(N)c1=O; X26 = COC1=CC(=O)N(C(=O)[C@@H](O*)C(C)C)[C@H]1Cc1ccccc1; aThr = C[C@H](O)[C@H](N)C(=O)O; NMeL = CN[C@@H](CC(C)C)C(=O)O; NMeV = CN[C@H](C(=O)O)C(C)C; Hexanoyl = CCCCCC(=O)*; Sar = CNCC(=O)O
// reported GI50 for each item listed

| COMPOUND | GI50 |
| --- | --- |
| COC(=O)c1c2c(cc3c1CC1(Cc4cc5c(cc4C1)CCCC5)C3)CCCC2 | 0.155 µM (active) |
| O=C1C(=C(I)I)c2ccccc2-c2ccccc21 | 2.58 µM (inactive) |
| CC1CN1c1c(C(=O)/C=C/c2ccc(F)cc2)c(-c2ccccc2)nn(C)c1=O (stereo not given) | 14.3 µM (inactive) |
| OC(Cc1cccnc1)(c1ccccc1)c1ccccc1 | > 100 µM (inactive) |
| CC(=O)Nc1ncc2c(n1)-c1ccccc1OC2c1ccccc1 (stereo not given) | 14.1 µM (inactive) |
| N#C/N=C(\N)NCCO | > 100 µM (inactive) |
| COc1ccc2c(c1)[n+]([O-])c(-c1ccc(C)cc1)c(N)[n+]2[O-] | 45.1 µM (inactive) |
| COc1cc(/C=C2/C(=O)N/C(=N\C(C)=O)N2C)ccc1OC(C)=O | > 100 µM (inactive) |
| O=P(O)(O)C(NCC(O)CN1CCOCC1)P(=O)(O)O (stereo not given) | > 100 µM (inactive) |
| O=C(c1ccccc1)c1nnn(Cc2ccccc2Cn2nnc(C(=O)c3ccccc3)c2C(=O)c2ccccc2)c1C(=O)c1ccccc1 | > 100 µM (inactive) |
| CN(CC(=O)O)Cc1c[nH]c2ccccc12 | > 100 µM (inactive) |
| CC(=O)OCC1OC(N2C(=O)CC(N)=Nc3ccccc32)C(OC(C)=O)C(OC(C)=O)C1OC(C)=O (stereo not given) | 29.8 µM (inactive) |
| CNC(=O)CN1CC(=O)N(C)C(=O)C1 | > 100 µM (inactive) |
| C=CCOc1ccc(C2(c3ccc(OCC=C)cc3)C(=O)Nc3ccccc32)cc1 | > 10 µM (inactive) |
| CC(=O)NC1C(OCc2ccccc2)OC(COC(=O)CCCCCNc2ccc([N+](=O)[O-])c3[nH]c4ccc(O)cc4c(=O)c23)C(O)C1OC(C)C(=O)N[C@@H](C)C(=O)N[C@H](CCC(=O)OCc1ccccc1)C(N)=O (stereo not given in full) | 4.13 µM (inactive) |
| C=C1C(=O)OC2C3C(=C)[C@@H](OC(C)=O)CC3C(C)=CC(OC(=O)C(C)(OC(C)=O)C(C)OC(C)=O)[C@@H]12 (stereo not given in full) | 18.9 µM (inactive) |
| COc1cc(/C=C\c2ccc(O)cc2)cc(OC)c1OC | 3.94 µM (inactive) |
| CCN(CC)CCCC(C)Nc1ccnc(/C=C/c2ccc(Cl)cc2)c1 (stereo not given) | 1.77 µM (inactive) |
| N#CC1C(C#N)C2(c3ccccc3)C(c3ccccc3)=NN(c3ccccc3)CC12 (stereo not given) | 36.4 µM (inactive) |
| CC(=O)C(=[N+]=[N-])C(=O)N1CCOC1=O | > 10 µM (inactive) |
| COC(=O)c1cc(C(=CCC[C@H]2CC[C@@]3(C)C(CCC4C3CC[C@@]3(C)C4CC[C@@H]3C(C)CCCC(C)C)C2)c2cc(Cl)c(O)c(C(=O)OC)c2)cc(Cl)c1O (stereo not given in full) | > 10 µM (inactive) |
| CCCCCC(=O)N[C@H](C(=O)N[C@H](C(=O)N(C)[C@@H](CC(C)C)C(=O)N1CCC[C@H]1C(=O)N1CCC[C@H]1C(=O)O[C@H](C(=O)N1C(=O)C=C(OC)[C@@H]1Cc1ccccc1)C(C)C)C(C)C)C(C)C (Hexanoyl-VV[NMeL]PP-X26) | 19.5 µM (inactive) |
| CC1=C2[C@H](c3ccccc3)C3C=CC2(c2ccccc23)N(C(=O)C(c2ccccc2)c2ccccc2)C1=O (stereo not given in full) | > 100 µM (inactive) |
| CC(=O)c1c(SCCN2CCOCC2)n(-c2ccccc2)c(=S)n(-c2ccccc2)c1=O | 22.3 µM (inactive) |
| O=C(/C=C1\Nc2ccccc2C(=O)N1c1ccc(Cl)cc1)c1ccncc1 | 20.7 µM (inactive) |
| Cc1c2oc3c(C)ccc(C(=O)N[C@@H]4C(=O)N[C@H](C(C)C)C(=O)N5CCC[C@H]5C(=O)N(C)CC(=O)N(C)[C@@H](C(C)C)C(=O)O[C@H]4C)c3nc-2c(C(=O)N[C@@H]2C(=O)N[C@H](C(C)C)C(=O)N3CCC[C@H]3C(=O)N(C)CC(=O)N(C)[C@@H](C(C)C)C(=O)O[C@H]2C)c(N)c1=O (I: [aThr][dV]P[Sar][NMeV] / II: [aThr][dV]P[Sar][NMeV]; ester I:1-I:C, II:1-II:C; linker I:N-II:N via Actinocin(1to9)) | 0.0023 µM (active) |
| CCOC(=O)c1nc2ccc([N+](=O)[O-])cc2c2c1CCO2 | 41.3 µM (inactive) |
| CC(=O)C1C(=O)C(=O)N(c2cccc([N+](=O)[O-])c2)C1=O (stereo not given) | > 100 µM (inactive) |
| Nc1ncnc2c(C3OC(CO)C(O)C3O)scc12 (stereo not given) | 0.459 µM (active) |
| c1nc(OCC2CCCCC2)c2nc[nH]c2n1 | 51.4 µM (inactive) |
| O=[N+]([O-])c1ccc2nc(-c3ccccn3)c(-c3ccccn3)nc2c1 | > 100 µM (inactive) |
| CN1Cc2ccccc2/C=C\c2ccccc21 | 65.6 µM (inactive) |
| COC(=O)C1CCC(=O)N1CN(C(C)=O)c1ccccc1 (stereo not given) | > 100 µM (inactive) |
| CCCC(CC)c1cc(O)c(O)cc1C(CC)CCC (stereo not given) | > 10 µM (inactive) |
| Cc1[nH]n(-c2ccc(S(=O)(=O)O)cc2)c(=O)c1/N=N/c1ccccc1 | > 100 µM (inactive) |
